SYSTEM TESTED: IRAK4 (Homo sapiens)
Construct: endogenous in cells; host or cells: OCI-LY10
Sequence (Q9NWZ3 whole entry): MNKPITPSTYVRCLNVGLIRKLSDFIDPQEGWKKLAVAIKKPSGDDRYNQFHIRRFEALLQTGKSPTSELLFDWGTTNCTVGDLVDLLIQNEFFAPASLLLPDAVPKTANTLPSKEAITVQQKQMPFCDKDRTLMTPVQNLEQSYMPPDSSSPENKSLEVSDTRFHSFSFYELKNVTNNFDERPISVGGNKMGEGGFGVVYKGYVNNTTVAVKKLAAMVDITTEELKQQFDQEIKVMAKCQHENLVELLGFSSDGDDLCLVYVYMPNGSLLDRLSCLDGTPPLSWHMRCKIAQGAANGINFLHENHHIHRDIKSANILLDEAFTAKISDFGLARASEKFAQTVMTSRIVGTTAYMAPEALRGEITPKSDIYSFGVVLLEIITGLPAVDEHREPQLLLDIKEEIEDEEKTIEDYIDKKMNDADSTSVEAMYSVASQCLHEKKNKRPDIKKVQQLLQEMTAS
ASSAY COMMENT: IRAK4 MSD Degradation in OCI-LY10
Assay type: cell-based
TEST SETTINGS: OCI-LY10 cells, Meso Scale Discovery, incubated 4 to 24 hours
Would you mind telling me the reported DC50 of each entry?

Exam item: Field request: DC50 | item: COc1cc2nn([C@H]3CC[C@H](CN4CCC5(CC4)CC(CCNc4cccc6c4C(=O)N(C4CCC(=O)NC4=O)C6=O)C5)CC3)cc2cc1NC(=O)c1cnn2ccc(C(F)(F)F)nc12 (stereo partly drawn) [I-15]
Marked response: > 0.2 µM

Exam item: What do you have for Cn1c(=O)n(C2CCC(=O)NC2=O)c2cccc(C3CCN(C[C@H]4CC[C@H](n5cc6cc(NC(=O)n7ccc8cc(C#N)cnc87)ccc6n5)CC4)CC3)c21 (stereo partly drawn) [I-129] ?
Marked response: < 0.01 µM

Exam item: Query COc1cc2nn([C@H]3CC[C@H](CN4CCN(c5cccc6c(N7CCC(=O)NC7=O)cncc56)[C@H](C)C4)CC3)cc2cc1NC(=O)c1cccc(C(F)(F)F)n1 [I-256] next
Marked response: < 0.01 µM

Exam item: Next: COc1ccc2c(c1C1CCN(C[C@H]3C[C@H](n4cc5cc(NC(=O)c6cccc(C(F)(F)F)n6)ccc5n4)C3)CC1)n(C)c(=O)n2C1CCC(=O)NC1=O (stereo partly drawn) [I-152]
Marked response: 0.01 to 0.05 µM

Exam item: Moving on to the next compound: CC(C)Nc1cc(-n2ccc3cc(C#N)cnc32)ncc1C(=O)N[C@H]1CC[C@H](CN2CCN(c3cccc4c(N5CCC(=O)NC5=O)cncc34)CC2)CC1 [I-372]
Marked response: < 0.01 µM

Exam item: Record: COc1cc2nn([C@H]3CC[C@H](CN4CCC(c5cccc6c5n(C)c(=O)n6C5CCC(=O)NC5=O)CC4)CC3)cc2cc1NC(=O)c1cnc(C#N)c(Cl)c1 (stereo partly drawn) [I-136]
Marked response: > 0.2 µM
